FYI, the data here is from patent US12344623B2.

Target: human A2A receptor (Homo sapiens, UniProt P29274)
Sequence (P29274 whole entry): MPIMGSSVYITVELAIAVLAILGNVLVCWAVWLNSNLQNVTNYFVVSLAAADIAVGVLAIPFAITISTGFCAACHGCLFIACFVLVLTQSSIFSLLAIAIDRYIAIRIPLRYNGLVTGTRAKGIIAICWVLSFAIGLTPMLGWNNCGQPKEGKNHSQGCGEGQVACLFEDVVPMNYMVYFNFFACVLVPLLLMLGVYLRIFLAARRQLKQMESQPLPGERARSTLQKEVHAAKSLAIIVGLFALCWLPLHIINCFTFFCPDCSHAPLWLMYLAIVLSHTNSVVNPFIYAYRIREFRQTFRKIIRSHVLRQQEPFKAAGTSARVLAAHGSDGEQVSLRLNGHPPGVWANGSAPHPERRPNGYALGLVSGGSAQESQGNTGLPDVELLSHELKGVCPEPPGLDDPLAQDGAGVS
Experiment: Human T cells, endogenous A2A receptor, cAMP, agonist NECA
Type: cell-based
Details: read-out: hTcell data, cAMP, IC50
pIC50: −log10 of the molar value.
Please respond with reported pIC50 for every item in the list.

So, COc1ncc(-c2ccccc2)c2sc(NC(=O)N3CC[C@H](CN)C3)nc12 [Compound 1] ? Its pIC50 was > 8.00

So, COc1cnc(N2CCOCC2)c2sc(NC(=O)N3CCC4(CCN(C)C4=O)CC3)nc12 [drawing 215] ? Its pIC50 was > 6.00

So, COc1ncc(C2COCCO2)c2sc(NC(=O)c3ccc(-c4nnn[nH]4)cc3)nc12 (stereo not shown) [Compound 164] ? Its pIC50 was > 7.00

So, COc1nc(F)c(C2CCOCC2)c2sc(NC(=O)c3ccc(C(=O)N(C)C)cc3)nc12 [Compound 20] ? Its pIC50 was > 8.00
